RUN_DESCRIPTION: recombinant barcode read abundance after kanamycin selection (control-corrected) (log10(CPM+1)); higher = more efficient recombination; sequences stand for … in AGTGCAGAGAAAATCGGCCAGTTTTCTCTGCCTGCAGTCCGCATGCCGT…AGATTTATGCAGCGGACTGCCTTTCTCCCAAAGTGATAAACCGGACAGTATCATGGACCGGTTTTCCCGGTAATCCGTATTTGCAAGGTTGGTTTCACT; site = the 11-nt target;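 further: IS621 recombinase and bridge RNA in Escherichia coli cells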
Would you kindly list recombinant barcode read abundance (log10) for each of these sequences?
Answers are plain numbers.

These recorded examples may help you get a feel for the data.
| SEQUENCE_CODE | MEAS_VALUE |
| --- | --- |
| TAGGTCCCTTGGGTTCTAACCTGTTGCGA (site TAGGTCCCTTC) | 3.11 |
| TGTTCTACTTGGGTTCTAACCTGTTGCTT (site TGGTCTACTAA) | 0.0191 |

For each of the sequences below, state recombinant barcode read abundance (log10).
1. CGCCTCCCTTGGGTTCTAACCTGTTGCAT (site CGCCTCCCTAT)
2. GAGTATGCTTGGGTTCTAACCTGTTGCCT (site GATTATGCTAG)
3. CTCATAGCTTGGGTTCTAACCTGTTGCGA (site CTCATAGCTTC)
4. ATGGCGCCTTGGGTTCTAACCTGTTGCCT (site ACGGCGCCTAG)
5. CCAAGTCCTTGGGTTCTAACCTGTTGCCT (site CCAAGTCCTAG)
6. GGCGAACCTTGGGTTCTAACCTGTTGCAT (site GACGATCCTAT)
7. GGATCCACTTGGGTTCTAACCTGTTGCCT (site TGATCCACTAG)

1: 0.159; 2: 0.223; 3: 1.06; 4: 0.846; 5: 0.892; 6: 0.126; 7: 0.139

GAGTACCCTTGGGTTCTAACCTGTTGCCT (site GGGTACCCTAG) yielded recombinant barcode read abundance (log10) of 0.619

Ref: the supplement of paper PMC11208160
